In what follows, each item is paired with its pKi for Carbonic anhydrase 2 (Homo sapiens).
pKi: −log10 of the molar value.
Measured Attribute: pKi

In [3]: df
Out[3]:
                                    compound  value_modifier  result
 0                 CCCCCCCCCCCCCCOS(N)(=O)=O               =    7.06
 1                          CCCCCOS(N)(=O)=O               =    7.24
 2            NS(=O)(=O)OC(C(F)(F)F)C(F)(F)F               =    5.80
 3                      NS(=O)(=O)OCC(F)(F)F               =    6.07
 4                       NS(=O)(=O)OC1CCCCC1               =    7.22
 5             CCCCCCCCCCCCCCCCCCOS(N)(=O)=O               =    6.89
 6                          C=CCCOS(N)(=O)=O               =    6.05
 7  C[C@]12CCC(OS(N)(=O)=O)CC1=CC(=O)C1C2CC[C@]2(C)C(=O)CCC12 (stereo partly drawn)               =    7.64
 8                             CCOS(N)(=O)=O               =    5.26
 9  C[C@]12CCC(OS(N)(=O)=O)CC1=C[C@@H](O)C1C2CC[C@]2(C)C(=O)CCC12 (stereo partly drawn)               =    7.89
10                            CCCOS(N)(=O)=O               =    6.12
11  CC(C)CCC[C@@H](C)[C@H]1CCC2C3CC=C4C[C@@H](OS(N)(=O)=O)CC[C@]4(C)C3CCC21 (stereo partly drawn)               <    5.00
12                          NS(=O)(=O)OCCCCl               =    6.24
